# System: Bombyx mori L.
# ASSAY: Toxicity test on 2nd-instar larvae of Bombyx mori L., leaf immersion feeding method
# Assay type: in vivo
# RECORDED CONDITIONS: 1000 ppm, 24 hours
QUANTITY NAME: Toxicity determination Bombyx mori L. Mortality (%)

>  <COMPOUND>
CNC(=O)Nc1c(C#N)nn2c1NC(C)(C)c1ccccc1-2 [Compound A19]

>  <VALUE OBSERVED>
7%

$$$$
>  <COMPOUND>
CC(=O)c1nn2c(c1Br)NC(C)(C)c1ccccc1-2 [Compound A5]

>  <VALUE OBSERVED>
2%

$$$$
>  <COMPOUND>
CC(=O)N1c2c(Br)c(C#N)nn2-c2ccccc2C1(C)C [Compound A4]

>  <VALUE OBSERVED>
10%

$$$$
>  <COMPOUND>
C=CC1Nc2c(-c3cc(C)oc3C)c(C#N)nn2-c2c(Cl)cc(C(F)(F)F)cc21 (centres unmarked) [Compound C50]

>  <VALUE OBSERVED>
5%

$$$$
>  <COMPOUND>
C=CC1(C=C)Nc2c(Br)c(CC)nn2-c2c(Cl)cc(C(F)(F)F)cc21 [Compound C61]

>  <VALUE OBSERVED>
9%

$$$$

====

# System: Solenopsis invicta
# ASSAY: whole plant or invertebrate
# Type: in vivo
# RECORDED CONDITIONS: 100 ppm; 24 h; water test tube poison-feeding
QUANTITY NAME: Solenopsis invicta Mortality (%) 100 ppm 24 h

>  <COMPOUND>
N#Cc1nn2c(c1[S+]([O-])C(F)(F)F)NC(C(=O)C(F)(F)F)c1cc(C(F)(F)F)cnc1-2 (centres unmarked)

>  <VALUE OBSERVED>
24

$$$$
>  <COMPOUND>
N#CCC1(C(F)(F)F)Nc2c([S+]([O-])C(F)(F)F)c(C#N)nn2-c2ncc(C(F)(F)F)cc21 (centres unmarked)

>  <VALUE OBSERVED>
28

$$$$
>  <COMPOUND>
N#Cc1nn2c(c1[S+]([O-])C(F)(F)F)NC(C#N)c1cc(C(F)(F)F)cnc1-2 (centres unmarked)

>  <VALUE OBSERVED>
20

$$$$
>  <COMPOUND>
CC1(C)Nc2c([S+]([O-])C(F)(F)F)c(C#N)nn2-c2ncc(C(F)(F)F)cc21 (centres unmarked)

>  <VALUE OBSERVED>
16

$$$$
>  <COMPOUND>
COC(=O)CC1(C#N)Nc2c([S+]([O-])C(F)(F)F)c(C#N)nn2-c2ncc(C(F)(F)F)cc21 (centres unmarked)

>  <VALUE OBSERVED>
16

$$$$
>  <COMPOUND>
COC(=O)CC1(C(=O)OC)Nc2c(Cl)c(C#N)nn2-c2ncc(C(F)(F)F)cc21 (centres unmarked)

>  <VALUE OBSERVED>
24

$$$$
>  <COMPOUND>
N#Cc1nn2c(c1[S+]([O-])C(F)(F)F)NC(Cl)(Cl)c1cc(C(F)(F)F)cnc1-2 (centres unmarked)

>  <VALUE OBSERVED>
15

$$$$
>  <COMPOUND>
N#CCC1(C(=O)C(F)(F)F)Nc2c([S+]([O-])C(F)(F)F)c(C#N)nn2-c2ncc(C(F)(F)F)cc21 (centres unmarked)

>  <VALUE OBSERVED>
20

$$$$

These data points were gathered from patent US11401271B2.
